Test system: Plasmodium falciparum
Test: Antimalarial activity multidrug-resistant Plasmodium falciparum Dd2 after 72 hrs by SYBR Green I based fluorescence assay
Assay type: functional, organism-based
Settings: Dd2, 72 h
Please note: IC50 exactly at 7 nM is no (0). Only values below 7 nM get yes (1).

smiles_code: CCCCCCCCCCc1cc[nH]c1/C=C1\N=C(c2ccc[nH]2)C=C1OC
measurement_target: Plasmodium falciparum
group: no (0)
//
smiles_code: CCCCCCCc1cc(CCCCCC)c(/C=C2\N=C(c3ccc[nH]3)C=C2OC)[nH]1
measurement_target: Plasmodium falciparum
group: yes (1)
//
smiles_code: CCCCCCCCc1cc(CCCCCCCC)c(/C=C2\N=C(c3ccc[nH]3)C=C2OC)[nH]1
measurement_target: Plasmodium falciparum
group: no (0)
//
smiles_code: COC1=CC(c2ccc[nH]2)=N/C1=C\c1[nH]c(Cc2ccc(Br)cc2)cc1Cc1ccc(F)cc1
measurement_target: Plasmodium falciparum
group: yes (1)
//
smiles_code: COC1=CC(c2ccc[nH]2)=N/C1=C\c1[nH]ccc1Cc1ccc(Br)cc1
measurement_target: Plasmodium falciparum
group: no (0)
//
smiles_code: CCCCCCCCc1cc(Cc2ccc(Cl)cc2)c(/C=C2\N=C(c3ccc[nH]3)C=C2OC)[nH]1
measurement_target: Plasmodium falciparum
group: no (0)
//
smiles_code: CCCCCCCCc1cc(CCCCCC)[nH]c1/C=C1\N=C(c2ccc[nH]2)C=C1OC
measurement_target: Plasmodium falciparum
group: yes (1)
//
smiles_code: COC1=CC(c2ccc[nH]2)=N/C1=C\c1[nH]c(Cc2cccc(F)c2)cc1Cc1cccc(F)c1
measurement_target: Plasmodium falciparum
group: yes (1)
//
smiles_code: CCCCCCCCc1cc(Cc2ccc(F)cc2)c(/C=C2\N=C(c3ccc[nH]3)C=C2OC)[nH]1
measurement_target: Plasmodium falciparum
group: yes (1)
//
smiles_code: CCCc1cc(Cc2ccc(Cl)cc2)c(/C=C2\N=C(c3ccc[nH]3)C=C2OC)[nH]1
measurement_target: Plasmodium falciparum
group: yes (1)
//
smiles_code: CCCCCCCCCCCC1=N/C(=C\c2[nH]c(-c3cc4ccccc4[nH]3)cc2OC)C=C1
measurement_target: Plasmodium falciparum
group: no (0)
//
smiles_code: COC1=CC(c2ccc[nH]2)=N/C1=C\c1[nH]ccc1Cc1ccccc1
measurement_target: Plasmodium falciparum
group: no (0)
//
smiles_code: COC1=CC(c2ccc[nH]2)=N/C1=C\c1[nH]c(Cc2c(F)cccc2F)cc1Cc1c(F)cccc1F
measurement_target: Plasmodium falciparum
group: no (0)
//
smiles_code: CCCCCCc1cc(CCCCCC)c(/C=C2\N=C(c3ccc[nH]3)C=C2OC)[nH]1
measurement_target: Plasmodium falciparum
group: yes (1)
//
smiles_code: CCCCCCCCc1cc(CCC)c(/C=C2\N=C(c3ccc[nH]3)C=C2OC)[nH]1
measurement_target: Plasmodium falciparum
group: yes (1)
//
smiles_code: COC1=CC(c2ccc[nH]2)=N/C1=C\c1[nH]c(Cc2ccc(Cl)cc2)cc1Cc1ccc(Cl)cc1
measurement_target: Plasmodium falciparum
group: yes (1)
//
smiles_code: CCCCCCCCCCCC1=N/C(=C\c2[nH]c(-c3ccccc3)cc2OC)C=C1
measurement_target: Plasmodium falciparum
group: no (0)
//
smiles_code: COC1=CC(c2ccccc2)=N/C1=C\c1[nH]c(C)cc1C
measurement_target: Plasmodium falciparum
group: no (0)
//
smiles_code: CCCCCCc1cc(Cc2ccc(F)cc2)c(/C=C2\N=C(c3ccc[nH]3)C=C2OC)[nH]1
measurement_target: Plasmodium falciparum
group: yes (1)
